# Tested on: 4'-phosphopantetheinyl transferase ffp (Bacillus subtilis)
# Assay summary: qHTS Assay for Inhibitors of Bacillus subtilis Sfp phosphopantetheinyl transferase (PPTase)
# Assay context: Biochemical Sfp PPTase activity
The campaign covered roughly 310,000 compounds. About 11,000 (3.5%) were called active. Another 4% or so got no clear call; they are omitted. Shown is part of a subset that was picked to be rich in actives.
Quantity kind: largest response in the series, negative = inhibition (%)
Reply numerically in %, unit not repeated.

Prompt: Look up largest response in the series, negative = inhibition for this compound: COc1cccc(C2CC(c3cccs3)=NN2C(=O)CSC2=NCCS2)c1OC (centres undefined)
Completion: -16

Prompt: Look up largest response in the series, negative = inhibition for this compound: Cc1cccc(OCC(=O)Nc2ccc(NC(=O)c3ccco3)c(C)c2)c1
Completion: 16.8

Prompt: Look up largest response in the series, negative = inhibition for this compound: COc1ccc(C(=O)Nc2ccccc2C(=O)N2CCN(c3ccccc3)CC2)cc1
Completion: 5.69

Prompt: Look up largest response in the series, negative = inhibition for this compound: CC[C@]1([C@H]2O[C@@H]([C@@H]3O[C@](O)(CO)[C@@H](C)C[C@H]3C)C[C@H]2C)CC[C@@H]([C@]2(C)CC[C@@]3(C[C@@H](O)[C@@H](C)[C@@H]([C@H](C)[C@H](OC)[C@H](C)C(=O)O)O3)O2)O1
Completion: 15.5

Prompt: Look up largest response in the series, negative = inhibition for this compound: O=c1[nH]c(-c2ccccc2)c(-c2ccccc2)[nH]1
Completion: 2.86

Prompt: Look up largest response in the series, negative = inhibition for this compound: Cc1cc(NC(=O)CCC(=O)N(CC(=O)NCC2CCCO2)c2ccccc2)no1 (centres undefined)
Completion: -5.59

Prompt: Look up largest response in the series, negative = inhibition for this compound: COCCNC(=O)c1ccc(Cn2c(SCC(=O)NCC3CCCO3)nc3ccc(Br)cc3c2=O)cc1 (centres undefined)
Completion: -12.8

Prompt: Look up largest response in the series, negative = inhibition for this compound: C#CC(CCN1CCCCC1)(OC)c1ccccc1 (centres undefined)
Completion: 23.4

Prompt: Look up largest response in the series, negative = inhibition for this compound: CCCCCCCC/C=C\CCCCCCCC(=O)NCC(=O)O
Completion: 8.62

* * *

# Tested on: 4'-phosphopantetheinyl transferase ffp (Bacillus subtilis) (UniProt Q9F4F7)
# Assay summary: qHTS Assay for Inhibitors of Bacillus subtilis Sfp phosphopantetheinyl transferase (PPTase);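 note: the enzyme is Sfp with the accession as filed and its product quenches rhodamine fluorescence; 0% = enzyme reaction without inhibitor and -100% = no enzyme wells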
# Assay context: Biochemical Sfp PPTase activity
Among all 310,000 compounds or so, about 11,000 (3.5%) were called active. Roughly 4% stayed inconclusive and do not appear here. For the sample, actives were picked, then their nearest neighbours and some compounds at random.
Quantity kind: largest response in the series, negative = inhibition (%)
Reply numerically in %, unit not repeated.

Prompt: Look up largest response in the series, negative = inhibition for this compound: COc1ccc(C(=O)Nc2c(N)nc(SCC(=O)Nc3ccc(C(C)=O)cc3)[nH]c2=O)cc1
Completion: -14.5

Prompt: Look up largest response in the series, negative = inhibition for this compound: Cc1cccc(OCC(=O)NCCNC(=O)c2cccnc2)c1
Completion: 3.63

Prompt: Look up largest response in the series, negative = inhibition for this compound: CCCCc1nc(SCC(=O)Nc2nnc(C(C)C)s2)n[nH]1
Completion: 2.56

Prompt: Look up largest response in the series, negative = inhibition for this compound: CCCC[C@]12Cc3cc(OC)c(OC)cc3C(O1)C1=C(CC3(CCCCC3)OC1=O)O2
Completion: -4.17

Prompt: Look up largest response in the series, negative = inhibition for this compound: CCCC(C(=O)NC1CCCC1)N(C(=O)Cn1nnc(-c2ccc(C)o2)n1)c1cccc(O)c1 (stereo unspecified)
Completion: -2.43

Prompt: Look up largest response in the series, negative = inhibition for this compound: O=C(Cc1c(Cl)cccc1Cl)NC1CC1
Completion: 11.4

* * *

# Tested on: 4'-phosphopantetheinyl transferase ffp (Bacillus subtilis) (UniProt Q9F4F7)
# Assay summary: qHTS Assay for Inhibitors of Bacillus subtilis Sfp phosphopantetheinyl transferase (PPTase);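 note: the enzyme is Sfp with the accession as filed and its product quenches rhodamine fluorescence; 0% = enzyme reaction without inhibitor and -100% = no enzyme wells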
# Assay context: Biochemical Sfp PPTase activity
About 11,000 (3.5%) of roughly 310,000 compounds were called active. About 4% were inconclusive and are not listed. The sample holds actives, similar compounds and a random draw of the others, so the mix is not that of the screen.
Quantity kind: largest response in the series, negative = inhibition

Prompt: Look up largest response in the series, negative = inhibition for this compound: CN(CCC(=O)Nc1cc(S(=O)(=O)N(C)C)ccc1Cl)CC(=O)Nc1ccc(F)cc1
Completion: 13.5% (inactive)

Prompt: Look up largest response in the series, negative = inhibition for this compound: CC(Nc1nc(C(F)(F)F)nc2ccccc12)c1cccs1 (stereo unspecified)
Completion: 2.55% (inactive)

Prompt: Look up largest response in the series, negative = inhibition for this compound: COc1ccc(/C(O)=C2/C(=O)C(=O)N(CCCN(C)C)C2c2ccccc2)cc1OC (stereo unspecified)
Completion: 6.96% (inactive)

Prompt: Look up largest response in the series, negative = inhibition for this compound: CN(CC(=O)NCc1ccncc1)S(=O)(=O)c1ccc(Br)cc1
Completion: 13.4% (inactive)

Prompt: Look up largest response in the series, negative = inhibition for this compound: CC1(c2ccc3ccccc3c2)NC(=O)NC1=O (stereo unspecified)
Completion: 12% (inactive)

Prompt: Look up largest response in the series, negative = inhibition for this compound: CCOc1ccc(CCNC(=O)Nc2ccccc2)cc1OCC
Completion: 11.9% (inactive)

Prompt: Look up largest response in the series, negative = inhibition for this compound: CCCCn1c(N)c(N(CCOC)C(=O)c2oc3ccc(OC)cc3c2C)c(=O)[nH]c1=O
Completion: 15.3% (inactive)

Prompt: Look up largest response in the series, negative = inhibition for this compound: CC(C)OC(=O)c1c(NC(=O)c2ccco2)sc2c1CCCC2
Completion: 10.9% (inactive)

Prompt: Look up largest response in the series, negative = inhibition for this compound: Cc1sc2ncn(CC(=O)NCCCC(=O)N(C)Cc3ccccc3)c(=O)c2c1C
Completion: 13.5% (inactive)

Prompt: Look up largest response in the series, negative = inhibition for this compound: NC(=O)C1CC(=O)N(c2ccc(OCC(=O)NCc3ccccc3)cc2)C1 (stereo unspecified)
Completion: 23.9% (inactive)

Prompt: Look up largest response in the series, negative = inhibition for this compound: CCOc1ccc(C(=O)Nc2ccc(CN3CCOCC3)cc2)cc1Cl
Completion: 8.41% (inactive)

* * *

# Tested on: 4'-phosphopantetheinyl transferase ffp (Bacillus subtilis) (UniProt Q9F4F7)
# Assay summary: qHTS Assay for Inhibitors of Bacillus subtilis Sfp phosphopantetheinyl transferase (PPTase);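 note: the enzyme is Sfp with the accession as filed and its product quenches rhodamine fluorescence; 0% = enzyme reaction without inhibitor and -100% = no enzyme wells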
# Assay context: Biochemical Sfp PPTase activity
In all, about 310,000 compounds went through this assay and about 11,000 (3.5%) were called active. About 4% were inconclusive and are not listed. Many of the other results were omitted from the sample, so actives are more common in it than they were.
Please go through the items and note down their largest response in the series, negative = inhibition.
Reply numerically in %, unit not repeated.

Prompt: Look up largest response in the series, negative = inhibition for this compound: COC(=O)c1ccc(CN2C(=O)NC(c3ccccc3)(c3ccccc3)C2=O)o1
Completion: 23.7

Prompt: Look up largest response in the series, negative = inhibition for this compound: NC(=O)CC[C@@H]1NC(=O)[C@H](CO)NC(=O)c2cc([N+](=O)[O-])cc(I)c2NCC[C@@H](C(N)=O)NC1=O
Completion: -7.09

Prompt: Look up largest response in the series, negative = inhibition for this compound: COc1cccc(C2/C(=C(/O)c3ccc(F)cc3)C(=O)C(=O)N2CCN(C)C)c1 (stereo not given)
Completion: -8.12

Prompt: Look up largest response in the series, negative = inhibition for this compound: CC(C)OCCCNC(=O)CN1C(=O)/C(=C/c2ccccc2F)Oc2ccccc21
Completion: -3.78

Prompt: Look up largest response in the series, negative = inhibition for this compound: Cc1ccc2occ(/C=N/NC(=O)c3ccccc3C)c(=O)c2c1
Completion: 18.5

Prompt: Look up largest response in the series, negative = inhibition for this compound: Cc1c(C)c(C)c2[nH]c(=S)[nH]c2c1C
Completion: 7.86

Prompt: Look up largest response in the series, negative = inhibition for this compound: O=C(Nc1ccccc1Cl)Nn1cnnc1
Completion: 10.7

Prompt: Look up largest response in the series, negative = inhibition for this compound: O=C(COC(=O)c1cccs1)Nc1ccccc1Cl
Completion: 3.72

Prompt: Look up largest response in the series, negative = inhibition for this compound: COC1=C/C(=C/c2c(N)n3nc(CC(=O)N4CCOCC4)sc3nc2=O)C=CC1=O
Completion: -2.99

Prompt: Look up largest response in the series, negative = inhibition for this compound: Cc1ccc(NC2CCCN(C(=O)CCc3cn[nH]c3)C2)cc1C (stereo not given)
Completion: 7.06

* * *

# Tested on: 4'-phosphopantetheinyl transferase ffp (Bacillus subtilis)
# Assay summary: qHTS Assay for Inhibitors of Bacillus subtilis Sfp phosphopantetheinyl transferase (PPTase);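 note: the enzyme is Sfp with the accession as filed and its product quenches rhodamine fluorescence; 0% = enzyme reaction without inhibitor and -100% = no enzyme wells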
# Assay context: Biochemical Sfp PPTase activity
About 11,000 (3.5%) of roughly 310,000 compounds were called active. Not shown: some 4% with an inconclusive outcome. This is one part of a sample in which actives are shown more often than they occur.
Quantity kind: largest response in the series, negative = inhibition (%)
Reply numerically in %, unit not repeated.

Prompt: Look up largest response in the series, negative = inhibition for this compound: Cc1ccc(C2C3=C(Nc4[nH]n(-c5ccccc5)c(=O)c42)c2ccccc2C3=O)cc1 (stereo unspecified)
Completion: -4.89

Prompt: Look up largest response in the series, negative = inhibition for this compound: O=S(=O)(Cc1nnnn1-c1ccc(Br)cc1)c1ccc(F)cc1
Completion: 6.04

Prompt: Look up largest response in the series, negative = inhibition for this compound: C/C(=N\Nc1nc2ccccc2[nH]1)c1cccs1
Completion: -4.19

Prompt: Look up largest response in the series, negative = inhibition for this compound: COC(=O)c1ccc(CNC(=O)c2ccc3oc(C(C)C)nc3c2)cc1
Completion: 14.1

Prompt: Look up largest response in the series, negative = inhibition for this compound: CCC(C(=O)NCCC(C)C)N(Cc1ccccc1Cl)C(=O)c1snc(C(N)=O)c1N (stereo unspecified)
Completion: 7.3

Prompt: Look up largest response in the series, negative = inhibition for this compound: Cc1c(Cl)cccc1NC(=O)NCCCN1CCCC1=O
Completion: 4.97
